- study system: T1, 4H3817-bA
- T1 chain: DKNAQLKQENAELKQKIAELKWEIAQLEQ
- assay: two-hybrid library CCNG1;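 further: natural log of median RNA to DNA barcode read ratio; higher means stronger binding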
Catalogue of binders with associated interaction score
value type: interaction score

[[record]]
binder = "DKNAQLKQENAELKQKIAELKWEIAQLEQ [4H3817-bA]"
value_reported = -0.506

[[record]]
binder = "DKNAQLEQEIAELKQKIAELEWENAQLKQ [4H3172-bA]"
value_reported = -0.291

[[record]]
binder = "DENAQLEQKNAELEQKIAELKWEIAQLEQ [4H1449-bA]"
value_reported = -0.857

[[record]]
binder = "DKNAQLKQEIAELEQKIAELKWENAQLKQ [4H3628-bA]"
value_reported = 0.612

[[record]]
binder = "DENAQLKQKIAELEQEIAELKWENAQLKQ [4H1804-bA]"
value_reported = -0.0173

[[record]]
binder = "DKNAQLKQEIAELEQKIAELKWKNAQLEQ [4H3631-bA]"
value_reported = 0.452

[[record]]
binder = "DKNAQLEQEIAELEQKNAELKWEIAQLEQ [4H3129-bA]"
value_reported = -0.661

[[record]]
binder = "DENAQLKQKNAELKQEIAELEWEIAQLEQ [4H1985-bA]"
value_reported = -0.287


Data provenance: paper PMC10397247
